Each item that follows carries a reported polymerase ribozyme fitness (log ratio).
B1: TPR t1 (parent)
chain: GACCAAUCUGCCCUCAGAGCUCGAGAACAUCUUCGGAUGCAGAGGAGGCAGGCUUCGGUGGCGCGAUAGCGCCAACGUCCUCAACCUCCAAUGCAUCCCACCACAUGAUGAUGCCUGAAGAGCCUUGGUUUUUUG

Variants of: B1
Assay: polymerase ribozyme fitness, log enrichment relative to wild type (log ratio); higher = more active; in vitro selection for triplet polymerase activity
Enter a number only.

- MUTATION LABEL: "U7C C12G"
  REPORTED RESULT: 0.687
- MUTATION LABEL: "U81A A90C U92C"
  REPORTED RESULT: -4.05
- MUTATION LABEL: "A68G G69C C82U G113A G128U"
  REPORTED RESULT: -4.89
- MUTATION LABEL: "A16C C64G G69U C94G G110U"
  REPORTED RESULT: -4.25
- MUTATION LABEL: "C13U C15G C88A U96C"
  REPORTED RESULT: -2.33

Qu. Returns the measured polymerase ribozyme fitness (log ratio) for the input variant. Input: C13A G63A G77U U106A C114A
Ans. -6.33

Qu. Follow-up entry: U14A G63C G113A
Ans. -4.74

Qu. Thanks! And A90U U133G ?
Ans. -1.46

Qu. C12A A74C G93A C124U U132A ?
Ans. -1.34

Qu. Same for C4U C8G G36U U38A G44U C124A
Ans. -5.08

Qu. And for G93C C102A ?
Ans. -2.96

Qu. Next variant up: U14C C62U
Ans. -1.6

Qu. Subsequent entry: C28U C34U C73G C102U G110A
Ans. -0.0797

Qu. Query A43G C72A C102U C114G next
Ans. -4.55

Qu. Now consider G61A G113A U130G and answer again.
Ans. -1.32

Qu. Okay, and C56G U92C C123A ?
Ans. -1.13
